Listed here: items and their measured apparent Kd.
- Tested on: MS2 coat protein
- ASSAY_SUMMARY: apparent Kd, MS2 coat protein; higher = weaker binding; RNA-MaP array; FMN 200 µM where present
- EXPERIMENTAL_CONDITIONS: designed as: OFF switch for flavin mononucleotide; no ligand
The reply should be a number in µM, with the unit left off.

Below are worked cases with known answers.
UUUUAACAUGAGGAUCACCCAUGUGAGGAUAUCGAAAUUUAUAUUAAUAUUUUUAAUUCGAGAAGGCACAUUUU : 0.116
GAUAGGACAGAGAAGGACGUAGCUAGAGAUACUAGCAUAUGAACCUUCACAUGAGGAUCACCCAUGUAGGAUAUCUGUCCUAUC : 0.00334
UCAAGUAUGUAGGAUAUCGAUGUCUGCGGACAUCGAGAAGGACGUACAUGAGGAUCACCCAUGUAACUUGCAUG : 0.107

INPUT: What does the data say about its apparent Kd? Entry: CGCAGCGCAGGAUAUACAUGAGGAUCACCCAUGUACUGGCUCGGCACAGGGUCUCAAGGUAGAAGGGUGCAAAU
OUTPUT: 0.0226

INPUT: Need apparent Kd, item UGGUGUGAAGGAUAUACAUGAGGAUCACCCAUGUAUGAGGUGUGUGUUGAGGUGGAGGGUAGAAGGUCAGGUGG
OUTPUT: 0.0301

INPUT: Quick one: apparent Kd for UAUUACAGAUAAGGAUAUUGACAUGAGGAUCACCCAUGUAUUUGGGAAUGUUUACUGAAUUCUUACGAGAAGGUAUACGUACUU ?
OUTPUT: 0.128

INPUT: Dear colleague, I am looking for the recorded apparent Kd of the following sequence: GUCUCGAUGUAAGGAUAUGCAGUGGAUAACACUGCAGAAGGUACAUGAGGAUCACCCAUGUAACUCUAAUAAUAAUAACGAGAC
OUTPUT: 0.0131
